Test system: CP260
ASSAY_OVERVIEW: qHTS profiling for inhibitors of Plasmodium falciparum proliferation (AID 504749); note: nearly all actives have a fitted effect of over 60% in size
ASSAY_CONDITIONS: P. falciparum in erythrocytes, SYBR Green DNA, 72 h; series mostly up to 28.7 µM
Records with an inconclusive call do not appear. Calls of active or inactive are those of the source. Calls come from the whole dose curve; as a rule, active = well fitted inhibition curve with a large enough effect; inconclusive = small, poorly fitted or top-dose-only effect; inactive = flat fitted curve, though single readings scatter.
Field 'call' accepts active, inactive

Here are 4 molecules together with their reported answers.
MOLECULE	TARGET_UNDER_TEST	GROUP_LABEL
CCCCN(CCCC)CC(O)c1cc(Cl)cc2c1-c1ccc(Cl)cc1/C2=C/c1ccc(Cl)cc1 (stereo unspecified)	CP260	active
CCCCN1CCCC[C@H]1C(=O)Nc1c(C)cccc1C	CP260	inactive
Nc1ccc(S(=O)(=O)Nc2ccc(Cl)nn2)cc1	CP260	inactive
CCCCC(CC)COC(=O)c1ccccc1O (stereo unspecified)	CP260	inactive

[Q] Check the results log: what was the call for CCOc1ccc2ccccc2c1C(=O)N[C@@H]1C(=O)N2[C@@H]1SC(C)(C)[C@@H]2C(=O)O ?
[A] inactive

[Q] Check the results log: what was the call for OCC(O)CN1CCN(c2ccccc2)CC1 (stereo unspecified) ?
[A] inactive
